Measured pIC50, listed per entry.
target.or.system: Cdk9/cyclinT1 (Homo sapiens (Human), UniProt P50750)
Sequence (P50750 whole entry): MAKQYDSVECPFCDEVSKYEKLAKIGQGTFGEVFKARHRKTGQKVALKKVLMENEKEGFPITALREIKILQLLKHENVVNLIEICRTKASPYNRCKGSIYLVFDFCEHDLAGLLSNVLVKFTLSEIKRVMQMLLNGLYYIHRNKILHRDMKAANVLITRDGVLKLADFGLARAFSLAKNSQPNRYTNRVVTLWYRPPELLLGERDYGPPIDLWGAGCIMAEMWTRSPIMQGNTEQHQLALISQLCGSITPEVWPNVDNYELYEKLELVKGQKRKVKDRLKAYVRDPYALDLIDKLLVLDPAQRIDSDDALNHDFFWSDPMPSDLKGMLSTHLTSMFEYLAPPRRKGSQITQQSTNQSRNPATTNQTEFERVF
Sequence (O60563 whole entry partner): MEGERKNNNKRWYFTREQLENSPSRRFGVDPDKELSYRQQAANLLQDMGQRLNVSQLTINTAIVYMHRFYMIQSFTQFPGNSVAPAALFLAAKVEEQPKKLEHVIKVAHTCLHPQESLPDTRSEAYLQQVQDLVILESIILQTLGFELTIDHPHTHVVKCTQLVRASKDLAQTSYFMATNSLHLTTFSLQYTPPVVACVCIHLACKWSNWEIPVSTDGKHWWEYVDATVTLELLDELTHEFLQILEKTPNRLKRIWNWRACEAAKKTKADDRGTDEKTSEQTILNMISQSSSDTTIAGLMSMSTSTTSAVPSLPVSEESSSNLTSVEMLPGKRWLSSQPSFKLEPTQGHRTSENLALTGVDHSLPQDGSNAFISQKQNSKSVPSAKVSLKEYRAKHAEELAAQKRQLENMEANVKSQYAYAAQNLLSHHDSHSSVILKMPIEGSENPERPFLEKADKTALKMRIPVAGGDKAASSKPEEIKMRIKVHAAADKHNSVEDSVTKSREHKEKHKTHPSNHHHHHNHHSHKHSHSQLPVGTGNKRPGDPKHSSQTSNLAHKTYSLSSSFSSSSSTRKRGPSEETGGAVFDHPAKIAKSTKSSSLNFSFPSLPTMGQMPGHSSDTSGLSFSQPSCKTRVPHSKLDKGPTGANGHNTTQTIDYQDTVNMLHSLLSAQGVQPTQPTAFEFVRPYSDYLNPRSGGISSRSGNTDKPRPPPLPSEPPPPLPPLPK
test.description: Cdk9/CyclinT1 IMAP Protocol (fluorescence polarization kinase assay)
condition.details: Table 2; generated using one of the two Cdk9/cyclinT1 assays (IMAP or Alpha Screen), not specified which; unit inferred
pIC50: −log10 of the molar value.
property: pIC50

* Fc1cccc(CNc2cccc(-c3cc(NC[C@H]4CCCNC4)ncc3Cl)n2)c1 | 7.41
* CCOC(=O)c1coc(N[C@H]2CC[C@H](Nc3cc(-c4cccc(NCc5cccc(F)c5)n4)c(Cl)cn3)CC2)n1 | 7.64
* N[C@H]1CC[C@H](Nc2cc(-c3cncc(NC[C@@H]4CCCOC4)n3)c(Cl)cn2)CC1 | 8.10
* N[C@H]1CC[C@H](Nc2cc(-c3cccc(NCC4CCCCC4)n3)c(Cl)cn2)CC1 | 7.91
* N[C@H]1CC[C@H](Nc2cc(-c3cccc(NCc4ccccc4Cl)n3)c(Cl)cn2)CC1 | 7.32
* N[C@H]1CC[C@H](Nc2cc(-c3nc(NCC4CCOCC4)cnc3C(F)(F)F)c(Cl)cn2)CC1 | 7.37
* Fc1cc(F)cc(CNc2cccc(-c3cc(NC4CCNCC4)ncc3Cl)n2)c1 | 7.56
* CN[C@H]1CC[C@H](Nc2cc(-c3cccc(NCc4cccc(F)c4)n3)c(Cl)cn2)CC1 | 8.10
